- ASSAYED SYSTEM: UniProt P56817
- Sequence (P56817 whole entry): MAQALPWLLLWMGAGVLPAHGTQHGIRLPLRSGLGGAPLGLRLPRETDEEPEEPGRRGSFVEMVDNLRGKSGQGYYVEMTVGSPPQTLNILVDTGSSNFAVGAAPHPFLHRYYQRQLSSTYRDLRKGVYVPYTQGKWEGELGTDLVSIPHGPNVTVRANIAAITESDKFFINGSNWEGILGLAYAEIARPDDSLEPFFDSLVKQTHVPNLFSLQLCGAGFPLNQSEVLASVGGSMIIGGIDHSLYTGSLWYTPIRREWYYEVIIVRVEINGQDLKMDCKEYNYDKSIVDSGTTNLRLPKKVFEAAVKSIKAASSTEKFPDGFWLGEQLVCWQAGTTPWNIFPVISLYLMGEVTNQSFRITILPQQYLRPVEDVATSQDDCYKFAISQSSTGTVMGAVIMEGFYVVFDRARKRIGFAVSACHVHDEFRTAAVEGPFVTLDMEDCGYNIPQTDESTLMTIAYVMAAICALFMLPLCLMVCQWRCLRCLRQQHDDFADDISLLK
- MEASUREMENT DESCRIPTION: Inhibition of recombinant BACE1 (unknown origin) using fluorogenic substrate
pKi: −log10 of the molar value.
Threshold check on pKi: at or above 6 gives label 1, strictly below gives label 0.

Example cases with answers are listed next.
• CSC[C@H](NC(=O)C1=NO[C@@H]2OCC[C@H]12)C(=O)N[C@@H](CC(C)C)[C@@H](O)C[C@@H](C)C(=O)N[C@H](C(=O)NCC(C)C)C(C)C = label 1
• CC(C)CNC(=O)[C@@H](NC(=O)[C@H](C)C[C@H](O)[C@H](CC(C)C)NC(=O)[C@H](CNC(=O)OC(C)(C)C)NC(=O)C1=NO[C@H]2OCC[C@@H]12)C(C)C = label 0
• COc1cccc(CNC[C@@H](O)[C@H](Cc2ccccc2)NC(=O)[C@H](CS(C)(=O)=O)NC(=O)C2=NO[C@@H]3OCC[C@H]23)c1 = label 0

Turning now to a further record.
// query Hi, just wondering whether `CC(C)CNC(=O)[C@@H](NC(=O)[C@H](C)C[C@H](O)[C@H](CC(C)C)NC(=O)[C@H](CS(C)(=O)=O)NC(=O)C1=NO[C@H]2OCC[C@@H]12)C(C)C` shows pKi of 6 or higher.
// result label 1
